experimental-system: cloned human or rodent CNS receptors, channels, and transporters (PDSP panel) (Homo sapiens, UniProt P41595)
Construct: expressed in transfected cells
Sequence (P41595 whole entry): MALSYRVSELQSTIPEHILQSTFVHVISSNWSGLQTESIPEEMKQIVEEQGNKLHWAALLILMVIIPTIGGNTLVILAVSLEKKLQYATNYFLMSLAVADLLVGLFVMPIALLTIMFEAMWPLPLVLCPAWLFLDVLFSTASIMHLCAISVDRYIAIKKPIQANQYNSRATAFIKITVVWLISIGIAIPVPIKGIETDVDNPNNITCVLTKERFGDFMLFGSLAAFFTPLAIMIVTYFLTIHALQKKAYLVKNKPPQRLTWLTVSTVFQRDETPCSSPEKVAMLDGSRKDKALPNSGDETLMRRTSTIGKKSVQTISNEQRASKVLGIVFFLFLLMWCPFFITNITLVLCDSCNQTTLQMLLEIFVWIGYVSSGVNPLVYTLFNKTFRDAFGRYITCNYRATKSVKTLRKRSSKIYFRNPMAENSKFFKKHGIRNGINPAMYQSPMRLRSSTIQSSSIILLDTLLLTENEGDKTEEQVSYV
assay-text: PDSP GPCR panel primary binding assays at 10 μM
condition-label: Receptor 5-HT2B; primary assay, 10 μM
measure: Inhibition 1

What does the data say about its Inhibition 1? Entry: Cl.NC(=O)c1cnc(N[C@@H]2CCCC[C@@H]2N)nc1Nc1cccc(-n2nccn2)c1 [UNC10302682A, P505-15 (PRT06207 HCl)]
19.24%

Then what about the molecule O=c1oc2ccccc2cc1-c1cn2cc(Cc3ccc(F)cc3)sc2n1 [UNC10302680A, iMDK] ?
9.18%

Then CCCCNc1ncc2c(-c3ccc(CN4CCN(C)CC4)cc3)cn([C@H]3CC[C@H](O)CC3)c2n1 [UNC2025C, UNC2025] ?
1.21%

What would you report for c1cn2cc(-c3ccc4cn[nH]c4c3)nc(Nc3ccc(N4CCOCC4)cc3)c2n1 [UNC10302678A, Entospletinib (GS-9973)] ?
61.2%

Each recorded value in this set is attributed to paper PMC9005681.
